Origin of values: patent US20180194862A1

List of pKd values.
# TARGET_OF_ASSAY: T1, mouse 4-1BB (mouse, UniProt P20334 24-187)
# T1 construct: also called mu4-1BB; murine 4-1BB
# T1 sequence (looked up): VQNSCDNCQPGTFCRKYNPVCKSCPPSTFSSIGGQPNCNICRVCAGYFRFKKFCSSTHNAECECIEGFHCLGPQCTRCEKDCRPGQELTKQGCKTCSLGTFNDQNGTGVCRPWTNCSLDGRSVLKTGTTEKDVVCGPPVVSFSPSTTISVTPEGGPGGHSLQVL
# ASSAY_PROCEDURE: SPR (Biacore)
pKd: −log10 of the molar value.
OBSERVATION_TYPE: pKd

BINDER: TABBY102-rIgG1 (antibody, V domains shown, rat IgG1, kappa) VH: QVQLQQSGAELAKPGSSVKISCKASGYTLTSYYLNWIKQTTGQGLEYIGYIDTGSGGSHYNEKFKGKATLTVDKSSSTAFMQLSSLTPVDSAVYYCARGGYYDGFFDYWGQGVMVTVSS VL: DIQMTQSPASLSASLGETVSIECLASEGISNDLAWYQQKSGKSPQFLIYAASRLQDGVPSRFSGSGSGTRYSLKISGMQPEDEADYFCQQSYKYPPTFGSGTKLEIK
REPORTED: 9.08

BINDER: TABBY105-rIgG2a (antibody, V domains shown, rat IgG2a, kappa) VH: EVQLVESGGGLVQPGRSMKLSCAASGFTFNNYDMAWVCQAPKRGLEWVATISYDGSTTYYRDSVKGRFTFSRDNAKSTLYLQMDSLRSEDTATYYCARVGAGDFDYWGQGVMVTVSS VL: DIRMTQSPVSLSTSLGETVNIECLASEDIYSDLAWYQQKPGKSPQLLIYSTNTLQNGVPSRFSGSGSGTQYSLKINSLQSEDVATYFCQQNNNYPYTFGAGTKLELK
REPORTED: 7.82

BINDER: TABBY107-rIgG1 (antibody, V domains shown, rat IgG1, kappa) VH: QVKLVQSGAALVKPGASVKMSCKASDYTFNDYWVSWVKQRHGESLEWIGEIYPNSGATNFNGKFRGKATLTVDNPTSTAYMELSRLTSEDSAIYYCTREYTRDWFAYWGQGTLVTVSS VL: DVVLTQTPSILSATIGQSVSISCRSSQSLLDSDGNTYLYWFLQRPGQSPQRLIYLVSNLGSGVPNRFSGSGSGTDFTLKISGVEAEDLGIYYCMQPTHAPYTFGAGTKLELK
REPORTED: 8.17
